assay name: Homolysis kinetics of alkoxyamines by EPR (growth of nitroxide)
Format: physicochemical
study conditions: in water/n-PrOH v/v 1:1; by Equation (2) from kd and T, A = 2.4 10^14 s^−1; mixture of diastereoisomers
I'd appreciate it if you could supply Activation energy Ea values for the items below.
Unit kcal/mol implied. Number only.

Which measured Activation energy Ea value corresponds to CC(ON1C(C)(C)CCCC1(C)C)c1ccc(NC(=O)[C@H](Cc2ccccc2)NC(=O)[C@@H](NC(=O)[C@H](Cc2ccccc2)NC(=O)CCC(=O)OCc2ccccc2)C(C)C)cc1 (stereo partly shown) ?
30.86

Which measured Activation energy Ea value corresponds to CC(ON1C(C)(C)CCCC1(C)C)c1ccc(NC(=O)[C@H](Cc2ccccc2)NC(=O)[C@@H](NC(=O)[C@@H](N)Cc2ccccc2)C(C)C)cc1.O=C(O)C(F)(F)F (stereo partly shown) ?
30.9

Which measured Activation energy Ea value corresponds to CC(ON1C(C)(C)CCCC1(C)C)c1ccc(NC(=O)[C@@H](Cc2ccccc2)NC(=O)OC(C)(C)C)cc1 (mixture of isomers) ?
30.83

Which measured Activation energy Ea value corresponds to CC(ON1C(C)(C)CCCC1(C)C)c1ccc(NC(=O)[C@H](Cc2ccccc2)NC(=O)[C@@H](NC(=O)[C@@H](N)Cc2ccccc2)C(C)C)cc1 (stereo partly shown) ?
30.66
